MEASURED_ON: CyclinA2/CDK2 (Homo sapiens, UniProt P20248)
Construct: purchased CRELUX Protein Services
TEST_DETAILS: Fluorescence Polarization (FP) competitive binding assay, Cyclin A2/Cdk2;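 further: plates equilibrated two hours at room temperature before polarization reading, IC50 fitted from eight-concentration compound titration curves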
PROTOCOL_CONDITIONS: 8 nM Cyclin A2/Cdk2, 2 nM FAM probe; average of 2-3 independent experiments; read-out: Cyclin A FP IC50
*1 amine or outer side, *2 acyl side, *3 side chain or, on linkers, in order; H or OH if unused. Where a SMILES comes first, the peptide text is derived from it. Bridges are numbered along the chain shown (N, C = ends). [ ]: non-standard residue; d: D form. The star is where a group is joined. NMePhe(2-(4-MorPh),5-Cl) = CN[C@@H](Cc1cc(Cl)ccc1-c1ccc(N2CCOCC2)cc1)C(=O)O; X137 = CN([C@@H](Cc1cc(F)ccc1-c1cnn(S(C)(=O)=O)c1)C(=O)[*:2])[*:1]; NMePhe(5-Cl,2-O(2-Pym)) = CN[C@@H](Cc1cc(Cl)ccc1Oc1ncccn1)C(=O)O; NMehhhLys(Me) = CN([C@@H](CCCCCCCN(C)[*:3])C(=O)[*:2])[*:1]; NMe(hhhLys) = CN([C@@H](CCCCCCCN[*:3])C(=O)[*:2])[*:1]; X28 = CN([C@@H](Cc1cc(Cl)cnc1OC1CCC1)C(=O)[*:2])[*:1]; Cyclobutanecarbonyl(1-CF3) = O=C(C1(C(F)(F)F)CCC1)*; cBuCO(3,3-F2-1-CF3) = O=C(C1(C(F)(F)F)CC(F)(F)C1)*; Pro(trans-4-F) = O=C(O)[C@@H]1C[C@@H](F)CN1; Pivaloyl(3,3,3-F3) = CC(C)(C(=O)*)C(F)(F)F; Gly(cPr) = N[C@H](C(=O)O)C1CC1
Record form. Attribute: pIC50. Fill in for each entry.
A value of pIC50 is the negative decimal logarithm of a concentration given in moles per litre.

Find the measured pIC50: item CC(C)C[C@@H]1NC(=O)[C@@H](N(C)C(=O)[C@@H](NC(=O)[C@@H]2C[C@@H](F)CN2C(=O)C2(C(F)(F)F)CCC2)C2CC2)CCCCCCCNC(=O)[C@H](Cc2cc(Cl)ccc2Oc2ncccn2)N(C)C1=O [Example 158] ({Cyclobutanecarbonyl(1-CF3)}-[Pro(trans-4-F)][Gly(cPr)][NMe(hhhLys)]L[NMePhe(5-Cl,2-O(2-Pym))]; lactam 3-C) , target or system CyclinA2/CDK2 (Homo sapiens, UniProt P20248).
7.00

Find the measured pIC50: item `CC(C)C[C@@H]1NC(=O)[C@@H](N(C)C(=O)[C@@H](NC(=O)[C@@H]2C[C@@H](F)CN2C(=O)C2(C(F)(F)F)CC(F)(F)C2)C2CC2)CC=CCCCCNC(=O)[C@H](Cc2cc(Cl)ccc2Oc2ncccn2)N(C)C1=O` , target or system CyclinA2/CDK2 (Homo sapiens, UniProt P20248).
5.99

Find the measured pIC50: item CC(C)C[C@@H]1NC(=O)[C@@H](N(C)C(=O)[C@@H](NC(=O)[C@@H]2C[C@@H](F)CN2C(=O)C(C)(C)C(F)(F)F)C2CC2)CCCCCCCN(C)C(=O)[C@H](Cc2cc(F)ccc2-c2cnn(S(C)(=O)=O)c2)N(C)C1=O [Example 304] ({Pivaloyl(3,3,3-F3)}-[Pro(trans-4-F)][Gly(cPr)][NMehhhLys(Me)]L[X137]; lactam 3-C) , target or system CyclinA2/CDK2 (Homo sapiens, UniProt P20248).
7.40

Find the measured pIC50: item CC(C)C[C@@H]1NC(=O)[C@@H](N(C)C(=O)[C@@H](NC(=O)[C@@H]2C[C@@H](F)CN2C(=O)C2(C(F)(F)F)CC(F)(F)C2)C2CC2)CCCCCCCN(C)C(=O)[C@H](Cc2cc(Cl)cnc2OC2CCC2)N(C)C1=O [Example 140] ({cBuCO(3,3-F2-1-CF3)}-[Pro(trans-4-F)][Gly(cPr)][NMehhhLys(Me)]L[X28]; lactam 3-C) , target or system CyclinA2/CDK2 (Homo sapiens, UniProt P20248).
7.70

Find the measured pIC50: item CC(C)C[C@@H]1NC(=O)[C@@H](N(C)C(=O)[C@H](CCC(=O)N(C)C)NC(=O)[C@@H]2C[C@@H](F)CN2C(=O)C2(C(F)(F)F)CC(F)(F)C2)CCCCCCCN(C)C(=O)[C@H](Cc2cc(Cl)ccc2-c2ccc(N3CCOCC3)cc2)N(C)C1=O [Example 419] ({cBuCO(3,3-F2-1-CF3)}-[Pro(trans-4-F)]E(NMe2)[NMehhhLys(Me)]L[NMePhe(2-(4-MorPh),5-Cl)]; lactam 3-C) , target or system CyclinA2/CDK2 (Homo sapiens, UniProt P20248).
7.70

Find the measured pIC50: item `CC(C)C[C@@H]1NC(=O)[C@@H](N(C)C(=O)[C@@H](NC(=O)[C@@H]2C[C@@H](F)CN2C(=O)C2(C(F)(F)F)CC(F)(F)C2)C2CC2)CC=CCCCCNC(=O)[C@H](Cc2cc(Cl)ccc2C2=CCC(F)(F)CC2)N(C)C1=O` , target or system CyclinA2/CDK2 (Homo sapiens, UniProt P20248).
6.68
